Data origin: patent US9708368B2

- MEASURED_TARGET: E. coli SPase (Escherichia coli, UniProt P00803)
- Sequence (P00803 whole entry): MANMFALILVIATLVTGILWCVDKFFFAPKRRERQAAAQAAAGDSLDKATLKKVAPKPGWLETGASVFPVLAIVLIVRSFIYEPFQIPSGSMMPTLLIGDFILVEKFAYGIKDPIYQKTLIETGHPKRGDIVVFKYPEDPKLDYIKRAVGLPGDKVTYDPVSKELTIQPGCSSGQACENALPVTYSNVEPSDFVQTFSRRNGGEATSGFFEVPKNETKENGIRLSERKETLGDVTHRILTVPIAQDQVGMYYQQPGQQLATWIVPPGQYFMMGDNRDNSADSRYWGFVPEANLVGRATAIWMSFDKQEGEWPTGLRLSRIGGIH
- METHOD: Biochemical SPase activity assay (fluorogenic peptide substrate), E. coli enzyme
pIC50: −log10 of the molar value. Square brackets hold non-standard residues; d marks the D form. Peptide text beside a SMILES is read from it. * marks the point of attachment. ξ: configuration not given here. X7 = CC1(C)[C@@H]2C[C@H]3OB([C@@H]4CCCN4*)O[C@@]3(C)[C@H]1C2; Biphenylcarbonyl(4'-Bu) = CCCCc1ccc(-c2ccc(C(=O)*)cc2)cc1; X1 = C[C@H](N*)B1OC2C[C@@H]3C[C@@H](C3(C)C)[C@]2(C)O1; NMeThr(3ξ) = CN[C@H](C(=O)O)C(C)O; NMeT = CN[C@H](C(=O)O)[C@@H](C)O; Myristoyl = CCCCCCCCCCCCCC(=O)*; NMeE = CN[C@@H](CCC(=O)O)C(=O)O; boroAla = C[C@H](N*)B(O)O; Dap = NC[C@H](N)C(=O)O; Ac3c = NC1(C(=O)O)CC1; boroGly = OB(O)CN*; βAla = NCCC(=O)O
Lab note: class by pIC50, see LOW: < 6; MEDIUM: ≥ 6 and < 7; HIGH: ≥ 7

MOLECULE | LABEL
CCCCc1ccc(-c2ccc(C(=O)N[C@H](CO)C(=O)N[C@H](C)C(=O)NCC(=O)N(C)[C@@H](CCC(=O)O)C(=O)N[C@@H](C)C(=O)N[C@@H](CC(N)=O)C(=O)NCB(O)O)cc2)cc1 [Compound 119] ({Biphenylcarbonyl(4'-Bu)}-[dS][dA]G[NMeE]AN-boroGly) | MEDIUM
CCCCc1ccc(-c2ccc(C(=O)NCCC(=O)N[C@@H](CCCCN)C(=O)N[C@H](C(=O)N[C@@H](C)C(=O)N[C@@H](CC(N)=O)C(=O)N3CCC[C@H]3B3O[C@@H]4C[C@@H]5C[C@@H](C5(C)C)[C@]4(C)O3)[C@@H](C)O)cc2)cc1 [Compound 200] ({Biphenylcarbonyl(4'-Bu)-βAla}-KTAN-X7) | LOW
CCCCc1ccc(-c2ccc(C(=O)NCCC(=O)N[C@@H](CCCCN)C(=O)N[C@H](C(=O)N[C@@H](C)C(=O)NC3(C(=O)N[C@@H](C)B4OC5C[C@@H]6C[C@@H](C6(C)C)[C@]5(C)O4)CC3)[C@@H](C)O)cc2)cc1 (some centres unmarked) [Compound 219] ({Biphenylcarbonyl(4'-Bu)-βAla}-KTA[Ac3c]-X1) | MEDIUM
CCCCc1ccc(-c2ccc(C(=O)N[C@@H](CCC(=O)O)C(=O)N[C@H](C(=O)N[C@@H](C)C(=O)N[C@@H](CCCCN)C(=O)N[C@@H](C)B(O)O)[C@@H](C)O)cc2)cc1 [Compound 163] ({Biphenylcarbonyl(4'-Bu)}-ETAK-boroAla) | MEDIUM
CCCCc1ccc(-c2ccc(C(=O)N[C@H](CO)C(=O)N[C@H](C)C(=O)NCC(=O)N(C)[C@H](C(=O)N[C@@H](C)C(=O)N[C@@H](CC(N)=O)C(=O)N[C@@H](C)B3OC4C[C@@H]5C[C@@H](C5(C)C)[C@]4(C)O3)[C@@H](C)O)cc2)cc1 (some centres unmarked) [Compound 226] ({Biphenylcarbonyl(4'-Bu)}-[dS][dA]G[NMeT]AN-X1) | MEDIUM

Data request: // return the class label for CCCCc1ccc(-c2ccc(C(=O)N[C@@H](CCN)C(=O)N[C@H](C(=O)N[C@@H](C)C(=O)N[C@@H](CCCCN)C(=O)N[C@@H](C)B3OC4C[C@@H]5C[C@@H](C5(C)C)[C@]4(C)O3)[C@@H](C)O)c(C)c2)cc1 (some centres unmarked) [Compound 241]
Data returned: HIGH

Data request: // return the class label for CCCCc1ccc(-c2ccc(C(=O)N[C@@H](CN)C(=O)N[C@@H](CCC(=O)N[C@H](CC(=O)O)C(=O)O)C(=O)N[C@@H](C)C(=O)N[C@@H](CCCCN)C(=O)N[C@@H](C)B3OC4C[C@@H]5C[C@@H](C5(C)C)[C@]4(C)O3)cc2)cc1 (some centres unmarked) [Compound 259] ({Biphenylcarbonyl(4'-Bu)}-[Dap]E(dD)AK-X1)
Data returned: HIGH

Data request: // return the class label for CCCCCCCCCCCCCC(=O)N[C@H](CO)C(=O)N[C@H](C)C(=O)NCC(=O)N(C)[C@H](C(=O)N[C@@H](C)C(=O)N[C@@H](CC(C)C)C(=O)NCC=O)C(C)O (some centres unmarked) [Compound 104] (Myristoyl-[dS][dA]G[NMeThr(3ξ)]ALG-aldehyde)
Data returned: LOW
